The reported numbers originate from patent US20190338002A1.

- TARGET OR SYSTEM: T1, rat beta CGRP (SEQ ID NO: 83) (rat, not fully specified)
- T1 construct: also called rat βCGRP; rat β-CGRP
- T1 peptide: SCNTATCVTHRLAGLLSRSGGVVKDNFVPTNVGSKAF
- EXPERIMENTAL DETAILS: SPR, 37 C, mutein captured, CGRP analyte
REPORTED ENDPOINT: pKd
Answers are plain numbers, as −log10 of the molar value.

Use the examples below as a reference point.
1. lipocalin mutein SEQ ID NO: 26 (designed binder, biotinylated by NHS chemistry for capture in SPR) QDSTSDLIPAPPLSKVPLQQNFQDNQFHGKWYVVGWAGNTLLREDKDPIKMQAKIYELKEDRSYNVTWVYFADKKCRYHIETFVPGSQPGEFTLGTIKSHPGETPILVRVVSTNYNQHAMVFFKGVNQNREIFEIILYGRTKELTNELKENFIRFSKSLGLPENHIVFPVPIDQCIDGSAWSHPQFEK : 11.22
2. lipocalin mutein SEQ ID NO: 25 (designed binder, biotinylated by NHS chemistry for capture in SPR) QDSTSDLIPAPPLSKVPLQQNFQDNQFHGKWYVVGWAGNTLLREDKDPIKMQAKIYELKEDRSYNVTWVYFADKKCNYHIETFVPGSQPGEFTLGTIKSYPGETPILVRVVSTNYNQHAMVFFKGVNQNREIFEIILYGRTKELTNELKENFIRFSKSLGLPENHIVFPVPIDQCIDGSAWSHPQFEK : 11.10
3. lipocalin mutein SEQ ID NO: 21 (designed binder, biotinylated by NHS chemistry for capture in SPR) QDSTSDLIPAPPLSKVPLQQNFQDNQFHGKWYVVGRAGNDALREDKDPEKMEATIYELKEDKSYNVTDVGFVQKKCMYVIHTFVPGSQPGEFTLGNIKSYPGVTSALIRVVNTNYNQHAMVFVKLVKQNRELFEITLYGRTKELTSELKENFIRFSKSLGLPENHIVFPVPIDQCIDGSAWSHPQFEK : 10.74
4. lipocalin mutein SEQ ID NO: 24 (designed binder, biotinylated by NHS chemistry for capture in SPR) QDSTSDLIPAPPLSKVPLQQNFQDNQFHGKWYVVGWAGNTLLREDKDPIKMQAKIYELKEDRSYNVTWVYFAEKKCNYHIETFVPGSQPGEFTLGTIKSYPGETPILVRVVSTNYNQHAMVFFKGVNQNREIFEIILYGRTKELTNELKENFIRFSKSLGLPENHIVFPVPIDQCIDGSAWSHPQFEK : 11.15
5. lipocalin mutein SEQ ID NO: 14 (designed binder, biotinylated by NHS chemistry for capture in SPR) QDSTSDLIPAPPLSKVPLQQNFQDNQFHGKWYVVGRAGNDALREDKDPEKMEATIYELKEDKSYNVTDVGFVQKKCMYVIHTFVPGSQPGEFTLGNIKSYPGVTSALVRVVSTNYNQHAMVFFKLVKQNRELFEITLYGRTKELTSELKENFIRFSKSLGLPENHIVFPVPIDQCIDGSAWSHPQFEK : 9.97
6. lipocalin mutein SEQ ID NO: 22 (designed binder, biotinylated by NHS chemistry for capture in SPR) QDSTSDLIPAPPLSKVPLQQNFQDNQFHGKWYVVGRAGNDALREDKDPEKMEATIYELKEDKSYNVTDVGLVQKKCMYVIHTFVPGGQPGEFTLGNIKSYPGVTSALVRVVSTNYNQHAMVFVKLVKQNRELFEITLYGRTKELTSELKENFIRFSKSLGLPENHIVFPVPIDQCIDGSAWSHPQFEK : 10.89
7. lipocalin mutein SEQ ID NO: 16 (designed binder, biotinylated by NHS chemistry for capture in SPR) QDSTSDLIPAPPLSKVPLQQNFQDNQFHGKWYVVGRAGNDELREDKDPEKMEATIYELKEDKSYNVTDVGFVQKKCMYVIHTFVPGSQPGEFTLGNIKSYPGVTSGLVRVVSTNYNQHAMVFFKVVRQNRELFEITLYGRTKELTSELKENFIRFSKSLGLPENHIVFPVPIDQCIDGSAWSHPQFEK : 10.01
8. lipocalin mutein SEQ ID NO: 8 (designed binder, biotinylated by NHS chemistry for capture in SPR) QDSTSDLIPAPPLSKVPLQQNFQDNQFHGKWYVVGWAGNTLRREDKNPTKMQATIYELKEDKSYNVTWVYFSEKKCNYHIETSVPGSQPGEFTLGTIKSYPGETSILVRVVSTNYNQHAMVFFKGVSQNREIFEITLYGRTKELTSELKENFIRFSKSLGLPENHIVFPVPIDQCIDGSAWSHPQFEK : 9.46

// batch mode: one pKd value per listed entry
1. lipocalin mutein SEQ ID NO: 10 (designed binder, biotinylated by NHS chemistry for capture in SPR) QDSTSDLIPAPPLSKVPLQQNFQDNQFHGKWYVVGWAGNTLLREDKNPTKMQATIYELKEDKSYNATWVYLSEKKCNYHIETSVPGSQPGEFTLGTTKSYPGETPILVRVVSTNYNQHAMVFFKGVSQNREIFEITLYGRTKELTSELKENFIRFSKSLGLPENHIVFPVPIDQCIDGSAWSHPQFEK
2. lipocalin mutein SEQ ID NO: 15 (designed binder, biotinylated by NHS chemistry for capture in SPR) QDSTSDLIPAPPLSKVPLQQNFQDNQFHGKWYVVGRAANDRLREDKDPEKMEATIYELKEDKSYNVTDVGFSRKKCIYVIHTFVPGSQPGEFTLGNIKSYPGTTSGLVRVVSTNYNQHAMVFFKVVGQNRESFEITLYGRTKELTSELKENFIRFSKSLGLPENHIVFPVPIDQCIDGSAWSHPQFEK
3. lipocalin mutein SEQ ID NO: 9 (designed binder, biotinylated by NHS chemistry for capture in SPR) QDSTSDLIPAPPLSKVPLQQNFQDNQFHGKWYVVGWAGNTLLREDKDPIKMQATIYELKEDKSYDVTWVYLSEKKCNYHIETSVPGSQPGEFTLGTIKSYPGETSILVRVVSTNYNQHAMVFFKGMSQNREIFEITLYGRTKELASELKENFIRFSKSLGLPENHIVFPVPIDQCIDGSAWSHPQFEK

*A*
1. 9.69
2. 10.41
3. 10.12
